# Lookup of reported pIC50 keyed by entry
- TEST_SYSTEM: Bcr/Abl fusion protein (Homo sapiens, UniProt P00519)
- Sequence (P00519 whole entry, the tested form may be a part): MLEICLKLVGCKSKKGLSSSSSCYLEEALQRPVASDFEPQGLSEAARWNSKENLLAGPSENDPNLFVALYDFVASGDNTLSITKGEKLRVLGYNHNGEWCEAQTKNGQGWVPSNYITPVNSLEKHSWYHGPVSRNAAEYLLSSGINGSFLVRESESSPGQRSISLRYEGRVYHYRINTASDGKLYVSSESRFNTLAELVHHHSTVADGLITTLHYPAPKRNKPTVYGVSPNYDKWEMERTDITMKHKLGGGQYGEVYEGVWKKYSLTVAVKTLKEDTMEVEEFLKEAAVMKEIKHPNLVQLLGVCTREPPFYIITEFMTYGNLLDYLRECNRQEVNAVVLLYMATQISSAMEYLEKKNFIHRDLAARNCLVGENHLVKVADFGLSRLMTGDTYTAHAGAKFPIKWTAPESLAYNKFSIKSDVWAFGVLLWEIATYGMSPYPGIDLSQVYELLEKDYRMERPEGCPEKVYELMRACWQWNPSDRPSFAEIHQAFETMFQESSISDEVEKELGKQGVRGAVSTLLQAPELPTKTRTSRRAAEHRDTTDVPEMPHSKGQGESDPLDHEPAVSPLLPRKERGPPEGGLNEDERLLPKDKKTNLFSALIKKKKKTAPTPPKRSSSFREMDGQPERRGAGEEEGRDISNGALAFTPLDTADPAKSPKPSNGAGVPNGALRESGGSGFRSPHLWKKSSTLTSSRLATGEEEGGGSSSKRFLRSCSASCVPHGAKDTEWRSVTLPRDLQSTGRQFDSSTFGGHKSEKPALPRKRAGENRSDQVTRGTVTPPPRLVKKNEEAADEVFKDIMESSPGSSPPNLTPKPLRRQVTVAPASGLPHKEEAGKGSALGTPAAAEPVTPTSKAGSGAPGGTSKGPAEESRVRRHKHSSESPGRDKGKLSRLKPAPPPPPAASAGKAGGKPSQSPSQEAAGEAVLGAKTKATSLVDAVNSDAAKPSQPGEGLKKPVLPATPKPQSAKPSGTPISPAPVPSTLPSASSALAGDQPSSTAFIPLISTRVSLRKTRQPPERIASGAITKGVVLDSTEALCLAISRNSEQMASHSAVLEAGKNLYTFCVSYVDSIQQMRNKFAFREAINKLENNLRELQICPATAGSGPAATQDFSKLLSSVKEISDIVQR
- Sequence (P11274 whole entry, further chain, the tested form may be a part): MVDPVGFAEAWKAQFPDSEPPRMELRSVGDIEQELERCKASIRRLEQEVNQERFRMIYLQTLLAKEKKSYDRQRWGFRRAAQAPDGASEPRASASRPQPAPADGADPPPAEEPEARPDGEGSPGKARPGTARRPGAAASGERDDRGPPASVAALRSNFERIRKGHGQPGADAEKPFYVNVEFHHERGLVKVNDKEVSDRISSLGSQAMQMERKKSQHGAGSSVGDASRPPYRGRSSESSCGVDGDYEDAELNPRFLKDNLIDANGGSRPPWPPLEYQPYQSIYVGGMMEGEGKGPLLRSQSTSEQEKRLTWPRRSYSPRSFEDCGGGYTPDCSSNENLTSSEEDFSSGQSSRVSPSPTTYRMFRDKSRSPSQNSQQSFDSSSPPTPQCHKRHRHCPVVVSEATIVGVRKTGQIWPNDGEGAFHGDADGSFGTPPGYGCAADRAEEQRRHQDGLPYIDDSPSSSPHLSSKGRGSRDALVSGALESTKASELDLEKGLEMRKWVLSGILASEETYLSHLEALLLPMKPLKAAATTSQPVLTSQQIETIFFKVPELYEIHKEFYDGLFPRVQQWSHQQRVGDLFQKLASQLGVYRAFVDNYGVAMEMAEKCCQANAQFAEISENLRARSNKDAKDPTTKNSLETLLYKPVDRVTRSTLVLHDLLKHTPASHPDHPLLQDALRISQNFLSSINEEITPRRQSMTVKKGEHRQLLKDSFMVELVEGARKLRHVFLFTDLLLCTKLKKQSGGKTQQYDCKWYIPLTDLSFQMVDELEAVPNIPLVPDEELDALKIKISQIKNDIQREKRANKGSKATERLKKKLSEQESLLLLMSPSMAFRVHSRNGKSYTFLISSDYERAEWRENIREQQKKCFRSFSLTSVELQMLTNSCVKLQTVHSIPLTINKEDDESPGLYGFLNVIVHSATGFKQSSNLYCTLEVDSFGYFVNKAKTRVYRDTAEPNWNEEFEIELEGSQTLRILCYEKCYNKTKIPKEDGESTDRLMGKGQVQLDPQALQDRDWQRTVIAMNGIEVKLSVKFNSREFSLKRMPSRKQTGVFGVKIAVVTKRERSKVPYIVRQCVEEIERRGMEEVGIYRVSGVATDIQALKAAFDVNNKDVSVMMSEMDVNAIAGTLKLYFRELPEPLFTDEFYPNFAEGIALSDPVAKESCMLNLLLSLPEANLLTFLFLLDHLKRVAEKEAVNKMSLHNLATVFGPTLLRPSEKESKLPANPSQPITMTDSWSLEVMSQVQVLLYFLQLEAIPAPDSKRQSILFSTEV
- ASSAY_EXPLANATION: Inhibition of BCR-ABL1 (unknown origin) assessed as ATP remaining by Kinase-Glo luminescent kinase assay
FYI, pIC50 means -log10 of a concentration in mol per litre.

Reference set, count: 3
Cc1ccc(NC(=O)c2cccc(C(F)(F)F)c2)cc1-n1cc(-c2cccnc2)cn1 = 7.85
Cc1ccc(NC(=O)c2ccc(CN3CCN(CCO)CC3)cc2)cc1-n1cc(-c2cccnc2)cn1 = 6.76
Cc1ccc(NC(=O)c2ccc(Cn3ccnc3)cc2)cc1-n1cc(-c2cccnc2)cn1 = 6.49

-- ask Lab note: need pIC50 for CCN(CC)Cc1ccc(C(=O)Nc2ccc(C)c(-n3cc(-c4cccnc4)cn3)c2)cc1 on Bcr/Abl fusion protein (Homo sapiens, UniProt P00519), anyone have it?
-- reply 6.89

-- ask Again, but for COc1ccc(C(=O)Nc2ccc(C)c(-n3cc(-c4cccnc4)cn3)c2)cc1
-- reply 7.34

-- ask Again, but for CCc1ccc(C(=O)Nc2ccc(C)c(-n3cc(-c4cccnc4)cn3)c2)cc1
-- reply 7.39

-- ask Again, but for Cc1ccc(NC(=O)c2ccc(CN3CCCN(C)CC3)cc2)cc1-n1cc(-c2cccnc2)cn1
-- reply 7.58

-- ask Again, but for Cc1ccc(NC(=O)c2ccc(F)cc2)cc1-n1cc(-c2cccnc2)cn1
-- reply 6.67

-- ask Again, but for Cc1ccc(NC(=O)c2ccc(CN3CCN(C)CC3)cc2)cc1-n1cc(-c2cccnc2)cn1
-- reply 7.30

Cited source for all entries: ChEMBL document CHEMBL3596095
